Assayed target: T1, human LRRC15 extracellular domain with C-terminal His tag (human, UniProt Q8TF66 22-538)
T1 construct: Recombinant, made in HEK293; the entry holds the extracellular domain and the His tag; SPR analyte; also called TPP-1545; hLRRC15 CT-His
T1 sequence: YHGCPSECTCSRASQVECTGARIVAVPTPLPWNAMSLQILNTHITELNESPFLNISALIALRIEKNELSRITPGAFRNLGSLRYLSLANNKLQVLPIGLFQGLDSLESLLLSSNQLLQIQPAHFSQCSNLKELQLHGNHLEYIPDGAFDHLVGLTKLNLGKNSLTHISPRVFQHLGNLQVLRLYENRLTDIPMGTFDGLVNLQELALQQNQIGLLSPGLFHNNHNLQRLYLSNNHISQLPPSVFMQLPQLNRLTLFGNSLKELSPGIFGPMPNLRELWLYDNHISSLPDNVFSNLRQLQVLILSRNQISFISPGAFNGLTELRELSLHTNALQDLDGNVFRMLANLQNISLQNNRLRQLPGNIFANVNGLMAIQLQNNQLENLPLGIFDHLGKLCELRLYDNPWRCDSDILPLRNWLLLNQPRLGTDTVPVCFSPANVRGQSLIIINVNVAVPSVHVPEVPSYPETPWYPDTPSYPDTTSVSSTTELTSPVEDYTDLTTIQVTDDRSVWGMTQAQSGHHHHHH
Assay details: calculated from SPR kd, 25°C

# Binder, Complex Half Life (min)
measured = [
    ("TPP-17074 (antibody, human IgG1, kappa, V domains shown, also called 438H-M161-K22-hIgG1) VH: EVQLLESGGGLVQPGGSLRLSCAASGFTFSGYMMSWVRQAPGKGLEWVSGIYPSGGYALYADSVKGRFTISRDNSKNTLYLQMNSLRAEDTAVYYCAREKAADLFGSYSEALDYWGQGTLVTVSS VL: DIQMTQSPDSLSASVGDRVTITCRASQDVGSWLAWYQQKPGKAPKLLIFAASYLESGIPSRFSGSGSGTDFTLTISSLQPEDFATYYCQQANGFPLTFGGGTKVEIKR", 96.3),
    ("TPP-14389 (antibody, human IgG1, kappa, V domains shown, also called 13612-rec02-hIgG1Kappa) VH: EVQLLESGGGLVQPGGSLRLSCAASGFTFSGYMMSWVRQAPGKGLEWVSGIYPSPGYTYYADSVKGRFTISRDNSKNTLYLQMNSLRAEDTAVYYCAREKASDLFGSYSEALDYWGQGTLVTVSS VL: DIQMTQSPDSLSASVGDRVTITCRASQDVGSWLAWYQQKPGKAPKLLIFAASSLESGIPSRFSGSGSGTDFTLTISSLQPEDFATYYCQQANGFPLTFGGGTKVEIKR", 8.9),
]
